The entries below come with measured self-aminoacylation values attached.
Tested on: biotinyl-Leu-oxazolone
Experiment: self-aminoacylation, catalytic enhancement (BLO) (fold over background); higher = more active; k-Seq, kA / k0A0; sequences stand for … in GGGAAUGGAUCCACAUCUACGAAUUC…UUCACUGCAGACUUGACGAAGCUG
Variants at the floor of the assay were thinned out.
Form field (numeric): enter value without unit.

Below, each entry is followed by its recorded self-aminoacylation result.
AUCCACCUAGGUCACCGGGUG [Fam2.2 aminoacylation ribozyme variant] ... 6.1
AUUCACCUAGGUCAUCGGUAG [Fam2.2 aminoacylation ribozyme variant] ... 0.606
AUUCACCGUGGUCAUCGGGUG [Fam2.2 aminoacylation ribozyme variant] ... 9.19

So for AUUCACCUAGGUCAUUGGGAG [Fam2.2 aminoacylation ribozyme variant] , the logged self-aminoacylation turned out to be 1.07

So for CCACACUUCGAGCAAUCGAUC [Fam1B.1 aminoacylation ribozyme variant] , the logged self-aminoacylation turned out to be 0.487
